# method: in vitro
# measurementContext: rat, liver microsomes
Record form. Attribute: half-life. Fill in for each entry.
Answers are plain numbers, in min.

Worked cases, answers included:
compound	unitSpec	half-life
O=C(CN1CCN2CCC[C@@H]2C1)NC1CCCCC1	min	8.2
O=C(CN1CCN2CCC[C@H]2C1)NC1CCCCC1	min	4.2
CCN1CCN(CC(=O)N(C)C2CCCC2)CC1C (racemic)	min	21
O=C(CCN1C[C@@H]2C[C@H]1CN2)NC1CCCCC1	min	45

Attention now shifts to the item below.
Need half-life of CC(C)(C)CCNC(=O)CN1CCN(C(=O)C2CCCCC2)CC1 , thanks.
21
